Ref: PubChem BioAssay AID651812

# measurement notes: qHTS for inhibitors of Vif-A3G interactions: Cherry picks; further: nearly all actives have a fitted effect of over 80% in size; further: potency means the concentration at half of the fitted maximal effect
# condition: HeLa A3G-eYFP + Vif, 24 h; eYFP fluorescence increase; series mostly up to 36.9 µM
In all, about 2,100 compounds went through this assay and about 650 (31%) were called active. About 16% were inconclusive and are not listed. The list shows a part of the results.
measurement label: Potency

Use the examples below as a reference point.
compound	Potency
O=C1CC(c2cc(Br)ccc2F)c2cc3c(cc2N1)CCC3 (stereo unspecified)	inactive
COc1cccc(C(=O)N/N=C/C(Br)=C/c2ccccc2)c1	inactive
CC(=O)Nc1ccc(S(=O)(=O)N2CCSc3ccccc32)cc1	inactive
CCOc1ccccc1NC(=O)Cn1nnc(C(=O)NCc2cccs2)c1N	inactive
CN(C)c1ccc(/C=C/c2ccnc3ccccc23)cc1C=O	inactive

Query :: Could you share which Potency value was measured for COc1ccc2nc(NC(=O)c3nc(S(=O)(=O)Cc4cccc(C)c4)ncc3Cl)sc2c1 ?
Result :: inactive

Query :: How about CCc1cc(/C=C/c2ccnc3ccccc23)ccc1N(C)C ?
Result :: 18.4 µM (active)

Query :: How about Cc1cccc(C(=O)Nc2nnc(C3=COCCO3)o2)c1 ?
Result :: inactive

Query :: How about CN(C)c1ccc(/C=C/c2ccnc3ccccc23)cc1O ?
Result :: 18.4 µM (active)

Query :: How about COc1cccc(/C=N/NC(=O)c2[nH]nc3c2CCc2ccccc2-3)c1 ?
Result :: inactive

Query :: How about COc1cccc(/C(O)=C/c2nc3ccc(C(=O)NCCc4cccc(C)c4)cc3[nH]c2=O)c1 ?
Result :: 11.6 µM (active)

----------
# measurement notes: qHTS for inhibitors of Vif-A3G interactions: Cherry picks; further: nearly all actives have a fitted effect of over 80% in size
# condition: HeLa A3G-eYFP + Vif, 24 h; eYFP fluorescence increase; series mostly up to 36.9 µM
Screen size: about 2,100 compounds; about 650 (31%) were called active. Not shown: some 16% with an inconclusive outcome. Calls come from the whole dose curve; as a rule, active = well fitted inhibition curve with a large enough effect; inconclusive = small, poorly fitted or top-dose-only effect; inactive = flat fitted curve, though single readings scatter. Some of the results follow.
Parameter call: string, one of YES for active, NO for inactive

Query :: Recorded test outcome, item C=C(C)CNC(=S)N/N=C1\CCCCc2ccccc21
Result :: NO

Query :: How about COc1cc2c(cc1OC)CN(C(=O)c1cc(=O)c3ccccc3o1)CC2 ?
Result :: NO

Query :: How about CCOc1ccc(C2CC(c3c(O)c4ccccc4oc3=O)=NN2c2ccccc2)cc1OC (stereo not given) ?
Result :: YES

Query :: How about CN(C)c1ccc(/C=C/C=C/c2ccnc3ccccc23)cc1 ?
Result :: YES

Query :: How about O=C(NCc1ccccc1C(F)(F)F)c1cccc2c1C(=O)c1ccc(N3CCC(N4CCCCC4)CC3)cc1S2(=O)=O ?
Result :: YES

Query :: How about CN(C)c1ccc(/C=C/c2ccnc3ccccc23)cc1 ?
Result :: YES

Query :: How about CCOc1cc(-c2nnc(SCC(=O)NCc3ccccc3)nc2-c2ccc(OC)c(OCC)c2)ccc1OC ?
Result :: NO

Query :: How about O=C(NCc1cccc(C(F)(F)F)c1)c1cccc2c1C(=O)c1ccc(N3CCC(Cc4ccccc4)CC3)cc1S2(=O)=O ?
Result :: YES

Query :: How about Cc1c(C)n(Cc2ccccc2)c2ccc(C(=O)NCc3ccco3)cc12 ?
Result :: NO

Query :: How about COc1cc(/C=C2/SC(=S)N(CC3CCCO3)C2=O)ccc1O (stereo not given) ?
Result :: YES

----------
# measurement notes: qHTS for inhibitors of Vif-A3G interactions: Cherry picks; further: nearly all actives have a fitted effect of over 80% in size
# condition: HeLa A3G-eYFP + Vif (tagged APOBEC3G with the HIV-1 protein that degrades it), 24 h; eYFP fluorescence increase; series mostly up to 36.9 µM
The campaign covered roughly 2,100 compounds. About 650 (31%) were called active. Not shown: some 16% with an inconclusive outcome. The call rests on the fitted dose curve; in most records, active means well fitted inhibition curve with a large enough effect; inconclusive means small, poorly fitted or top-dose-only effect; inactive means flat fitted curve, though single readings scatter. The list shows a part of the results.
Parameter call: string, one of YES = active, NO = inactive

Query :: Recorded test outcome, item CCOC(=O)Cn1c(=O)c(-c2cc(Br)ccc2N)nc2ccccc21
Result :: YES

Query :: How about CC[n+]1ccccc1/C=C/c1ccc(N(C)C)cc1 ?
Result :: YES

Query :: How about CCCCNc1c(-c2ccc(SC3CCCCC3)cc2)nc2cnccn12 ?
Result :: YES

Query :: How about Cc1cccc(C)c1NC(=S)NC(C)CCc1ccccc1 (stereo not given) ?
Result :: NO

Query :: How about C=C(C)CNC(=S)NNC(=O)c1ccco1 ?
Result :: NO

Query :: How about COc1cc(/C=C2/SC(=S)N(Cc3ccccc3)C2=O)cc(OC)c1O ?
Result :: NO

Query :: How about Fc1ccc(-c2cnn3c(-c4cccs4)ccnc23)cc1 ?
Result :: YES

Query :: How about CCN(CC)c1ccc(/C=C/C(=O)c2ccc(Br)cc2)cc1 ?
Result :: YES

Query :: How about O=C(COc1ccc(C(=O)c2ccccc2)cc1)NCc1ccc(F)cc1 ?
Result :: NO

Query :: How about CCOC(=O)CSc1nc2c(c(=O)[nH]1)C(C)(CC)Cc1ccccc1-2 (stereo not given) ?
Result :: NO

Query :: How about C(=Cc1c[nH]c2ccccc12)c1nccc2ccccc12 ?
Result :: YES

Query :: How about O=C(NCCN1C(=O)S/C(=C\c2ccc(OC(F)F)cc2)C1=O)c1cnccn1 ?
Result :: NO

Query :: How about Nc1c(C(=O)C2CC2)sc2nc(-c3cccs3)cc(C(F)(F)F)c12 ?
Result :: YES

Query :: How about c1ccc(N=Nc2ccc3cccccc2-3)cc1 ?
Result :: NO

Query :: How about CCOc1ccc(Br)cc1C1C(C(=O)OC)=C(N)Oc2cc(N(C)C)ccc21 (stereo not given) ?
Result :: NO

Query :: How about COc1ccc(NC(=O)CN2C(=O)C3(SCC(=O)N3c3ccccc3)c3ccccc32)cc1Cl (stereo not given) ?
Result :: NO

Query :: How about Fc1cccc(F)c1/C=N/NC(=S)Nc1cccnc1 ?
Result :: NO

Query :: How about COc1ccccc1NC(=O)C1=C(C)Nc2nc3ccccc3n2C1c1cccs1 (stereo not given) ?
Result :: NO

Query :: How about O=C(O)c1ccccc1/C=N/Nc1ccc(S(=O)(=O)N2CCOCC2)cc1[N+](=O)[O-] ?
Result :: NO

Query :: How about CCOC(=O)COn1c(=O)c(-c2ccc(Br)cc2)[n+]([O-])c2ccccc21 ?
Result :: NO

Query :: How about N#C/C(=C\c1ccc(C(=O)O)cc1)c1nc2sc3c(c2c(=O)[nH]1)CCCC3 ?
Result :: NO

Query :: How about CC(C)CC[n+]1ccccc1/C=C/c1ccc(N(C)C)cc1 ?
Result :: YES

Query :: How about COc1ccccc1C(=O)N1CCN(c2cccc(Cl)c2)CC1 ?
Result :: NO

Query :: How about Clc1ccc(-c2csc3ncnc(Sc4nnnn4C4CC4)c23)cc1 ?
Result :: NO

Query :: How about CCN(CC)c1ccc(/C=C/c2ccnc3ccccc23)cc1 ?
Result :: YES

Query :: How about COc1ccccc1NC1=NC(c2ccc(Cl)cc2)N=C(N)N1 (stereo not given) ?
Result :: NO

Query :: How about COc1cccc(Cn2c(-c3nonc3N)nc3ccccc32)c1 ?
Result :: NO

Query :: How about N=C1S/C(=C\c2ccc(-c3cccc(Cl)c3)o2)C(=O)N1c1nccs1 ?
Result :: YES

Query :: How about C(=C\c1c[nH]c2ccccc12)/c1nccc2ccccc12 ?
Result :: YES

Query :: How about COc1ccc2c(c1)c1nc3ccccc3nc1n2CC(=O)OC(C)C ?
Result :: YES

Query :: How about CCOC(=O)C1C(=O)C=C(/C=C/c2ccc(N(C)C)cc2)CC1c1ccccc1 (stereo not given) ?
Result :: YES

Query :: How about CC(C)(C)C(=O)c1sc2nc(-c3cccs3)cc(C(F)(F)F)c2c1N ?
Result :: YES

Query :: How about CCN(C)c1ccc(/C=N\n2nnnc2N)cc1 ?
Result :: NO

Query :: How about CCC(C)Sc1ccc(-c2nc3cc(C)ccn3c2NC2CCCCC2)cc1 (stereo not given) ?
Result :: NO

Query :: How about CCOc1ccc(Cn2c3ccc(OC)cc3c3nc4ccccc4nc32)cc1 ?
Result :: YES

Query :: How about Cc1ccc(NS(=O)(=O)c2cc([N+](=O)[O-])ccc2N/N=C/c2sc(N3CCOCC3)nc2-c2ccccc2)c(C)c1 ?
Result :: YES

Query :: How about CC(=O)Nc1ccc(-c2ccnc3c2CC(C(=O)Nc2cccc(N(C)C)c2)O3)cc1 (stereo not given) ?
Result :: NO

Query :: How about O=C(Cn1ncc(Cl)c(Cl)c1=O)N1CCN(S(=O)(=O)c2ccc3ccccc3c2)CC1 ?
Result :: NO

Query :: How about NC(=O)c1ccccc1NC(=S)NC(=O)CCc1ccccc1 ?
Result :: NO

Query :: How about CN(C)c1ccc(/C=C(\C#N)c2nc3ccccc3c(=O)[nH]2)cc1 ?
Result :: YES

Query :: How about CCN(CC)c1ccc(/C=N/NC(=O)c2ccco2)cc1 ?
Result :: NO

Query :: How about COc1ccc2c(Cl)c(C(=O)N/N=C3\CCCC(=O)C3)sc2c1 ?
Result :: YES

Query :: How about COc1cccc(Cn2c(-c3nonc3NC(C)=O)nc3ccccc32)c1 ?
Result :: NO

Query :: How about Cc1ccc2c(/C=C/c3c[nH]c4ccccc34)ccnc2c1C ?
Result :: YES

Query :: How about CCOc1cccc(-n2nnnc2-c2ccc(OC)cc2)c1 ?
Result :: NO
